- System: HCV replicon cells
- TEST_PROTOCOL: Cell-based HCV replicon assay (replicon RNA by Taqman real time PCR)
- TEST_CONTEXT: HCV replicon 1b, cells harvested on day 3; read-out: 1b EC50
ENDPOINT: pEC50
Scale note: pEC50 = -log10(concentration in M).

Input line: Look up pEC50 with HCV replicon cells for this compound: C[C@@]1(N=[N+]=[N-])[C@@H]2OP(=O)(OC3CCCC3)OC[C@H]2O[C@H]1n1ccc(=O)[nH]c1=O (stereo partly drawn) [Compound 87]
Output line: 5.51

Input line: Look up pEC50 with HCV replicon cells for this compound: CCOc1nc(N)nc2c1ncn2[C@@H]1O[C@@H]2COP(=O)(OC3CCC3)O[C@H]2[C@@]1(C)N=[N+]=[N-] (single isomer, unassigned) [Compound 107]
Output line: 4.73

Input line: Look up pEC50 with HCV replicon cells for this compound: C[C@@]1(N=[N+]=[N-])[C@@H]2OP(=O)(OC3CCC3)OC[C@H]2O[C@H]1n1ccc(=O)[nH]c1=O (stereo partly drawn)
Output line: 4.29

###

- Test system: HCV replicon cells
- TEST_PROTOCOL: Cell-based HCV replicon assay (replicon RNA by Taqman real time PCR)
- TEST_CONTEXT: read-out: 1b EC50
Provide the recorded pEC50 for the entries that follow.
Scale note: pEC50 = -log10(concentration in M).

Input line: Look up pEC50: CCOC(=O)[C@H](C)NP(=O)(OC[C@H]1O[C@@H](n2ccc(=O)[nH]c2=O)[C@](C)(N=[N+]=[N-])[C@@H]1O)Oc1ccccc1 (single isomer, unassigned) [Compound 152]
Output line: 6.30

Input line: Look up pEC50: COC(=O)c1ccccc1OP(=O)(N[C@@H](C)C(=O)OC)OC[C@H]1O[C@@H](n2ccc(=O)[nH]c2=O)[C@](C)(N=[N+]=[N-])[C@@H]1O (single isomer, unassigned) [Compound 228]
Output line: 5.89

Input line: Look up pEC50: C[C@H](NP(=O)(OC[C@H]1O[C@@H](n2ccc(N)nc2=O)[C@](C)(N=[N+]=[N-])[C@@H]1O)Oc1ccccc1)C(=O)OC1CCCC1 (stereo partly drawn) [Compound 336]
Output line: 4.82

###

- Tested on: HCV replicon cells
- TEST_PROTOCOL: Cell-based HCV replicon assay (replicon RNA by Taqman real time PCR)
- TEST_CONTEXT: read-out: 1b EC50
Provide the recorded pEC50 for the entries that follow.
Scale note: pEC50 = -log10(concentration in M).

Input line: Look up pEC50: COc1nc(N)nc2c1ncn2[C@@H]1O[C@H](COP(=O)(N[C@@H](C)C(=O)OC2CCCCC2)Oc2ccccc2)[C@@H](O)[C@@]1(C)N=[N+]=[N-] (single isomer, unassigned) [Compound 274]
Output line: 5.06

Input line: Look up pEC50: COC(=O)[C@H](C)NP(=O)(OC[C@H]1O[C@@H](n2ccc(N)nc2=O)[C@](C)(N=[N+]=[N-])[C@@H]1O)Oc1ccccc1Cl (stereo partly shown) [Compound 94]
Output line: 5.00

Input line: Look up pEC50: COC(=O)[C@H](C)NP(=O)(OC[C@H]1O[C@@H](n2ccc(=O)[nH]c2=O)[C@](C)(N=[N+]=[N-])[C@@H]1O)Oc1ccc(Cl)cc1 (single isomer, unassigned) [Compound 327]
Output line: 5.77

Input line: Look up pEC50: CC(C)COC(=O)[C@H](C)NP(=O)(OC[C@H]1O[C@@H](n2ccc(=O)[nH]c2=O)[C@](C)(N=[N+]=[N-])[C@@H]1O)Oc1ccccc1 (single isomer, unassigned) [Compound 210]
Output line: 5.48

Input line: Look up pEC50: COC(=O)[C@H](C)NP(=O)(OC[C@H]1O[C@@H](n2cnc3c(N4CCC4)nc(N)nc32)[C@](C)(N=[N+]=[N-])[C@@H]1O)Oc1ccccc1Cl (stereo partly shown) [Compound 389]
Output line: 5.64

Input line: Look up pEC50: CC(C)COC(=O)[C@H](C)NP(=O)(OC[C@H]1O[C@@H](n2ccc(=O)[nH]c2=O)[C@](C)(N=[N+]=[N-])[C@@H]1O)Oc1ccccc1 (stereo partly shown) [Compound 37]
Output line: 5.46

Input line: Look up pEC50: COC(=O)[C@H](C)NP(=O)(OC[C@H]1O[C@@H](n2ccc(=O)[nH]c2=O)[C@](C)(N=[N+]=[N-])[C@@H]1O)Oc1cccc2ccccc12 (stereo partly shown) [Compound 235]
Output line: 8.52

Input line: Look up pEC50: CCCOC(=O)[C@H](C)NP(=O)(OC[C@H]1O[C@@H](n2cnc3c(OC)nc(N)nc32)[C@](C)(N=[N+]=[N-])C1O)Oc1ccccc1 (single isomer, unassigned) [Compound 288]
Output line: 6.05

Input line: Look up pEC50: COC(=O)[C@H](C)NP(=O)(OC[C@H]1O[C@@H](n2cnc3c(OC)nc(N)nc32)[C@](C)(N=[N+]=[N-])[C@@H]1O)Oc1ccc(F)cc1 (single isomer, unassigned) [Compound 267]
Output line: 6.15
